assay: Metabolic stability of liver microsomes, mouse; assay type: in vitro ADME; settings: NADPH, 0-45 min, read-out: CLint(μL/min/mg protein) Mouse
metric: microsomal CLint (µL/min/mg)

Reference set, count: 3
Cc1cc2cc(n1)-c1cnccc1OCCCCCn1c(nc3cc(C)c(N4CCC5(CCN(CCF)CC5)CC4)cc31)NC2=O [Example 59] | 8.93
Cc1cc2cc(n1)-c1cnccc1OCCC[C@@H](C)Cn1c(nc3cc(C)c(N4CCC5(CC4)CCN(C4COC4)CC5)cc31)NC2=O [Example 12] | 5.5
Cc1cc2cc(n1)-c1cnccc1OCCC[C@@H](C)Cn1c(nc3ccc(N4CCC5(CCN(C)CC5)CC4)cc31)NC2=O [Example 3] | 23.1

(P) Cc1cc2cc(n1)-c1cnccc1OCCC[C@@H](C)Cn1c(nc3cc(F)c(N4CCC5(CCN(C)CC5)CC4)cc31)NC2=O [Example 5]
(Q) Cc1cc2cc(n1)-c1cnccc1OCCCCCn1c(nc3ccc(N4CCC5(CCN(C)CC5)CC4)cc31)NC2=O [Example 1]
(R) Cc1cc2cc(n1)-c1cnccc1OCCCCCn1c(nc3cc(C)c(N4CCC5(CCN(C)CC5)CC4)cc31)NC2=O [Example 13]
(S) Cc1cc2cc(n1)-c1cnccc1OCCCCCn1c(nc3ccc(N4CCC5(CCN(CC(C)(C)F)CC5)CC4)cc31)NC2=O [Example 78]
With regard to microsomal CLint, arrange the entries in ascending order, please. Dear reader, please state the labels in the requested order.
R, P, Q, S
(R: 6.2 µL/min/mg, P: 22.8 µL/min/mg, Q: 32.7 µL/min/mg, S: 69.5 µL/min/mg)

###

molecular target: Ba/F3 cells overexpressing EGFR Del19/T790M/C797S (Homo sapiens, UniProt P00533, T790M/C797S, cells depend on it, form not given); experiment: Cell proliferation inhibitory activity assay, Ba/F3 EGFR Del19/T790M/C797S; assay type: cell-based; conditions: cell proliferation inhibition, 72 hours, luminescence; read-out: Ba/F3 cells overexpressing different EGFR mutations IC50 (nM) Del19/T790M/C797S
Sequence (P00533 with tags, fused parts or gaps DEL746-750/T790M/C797S, form open): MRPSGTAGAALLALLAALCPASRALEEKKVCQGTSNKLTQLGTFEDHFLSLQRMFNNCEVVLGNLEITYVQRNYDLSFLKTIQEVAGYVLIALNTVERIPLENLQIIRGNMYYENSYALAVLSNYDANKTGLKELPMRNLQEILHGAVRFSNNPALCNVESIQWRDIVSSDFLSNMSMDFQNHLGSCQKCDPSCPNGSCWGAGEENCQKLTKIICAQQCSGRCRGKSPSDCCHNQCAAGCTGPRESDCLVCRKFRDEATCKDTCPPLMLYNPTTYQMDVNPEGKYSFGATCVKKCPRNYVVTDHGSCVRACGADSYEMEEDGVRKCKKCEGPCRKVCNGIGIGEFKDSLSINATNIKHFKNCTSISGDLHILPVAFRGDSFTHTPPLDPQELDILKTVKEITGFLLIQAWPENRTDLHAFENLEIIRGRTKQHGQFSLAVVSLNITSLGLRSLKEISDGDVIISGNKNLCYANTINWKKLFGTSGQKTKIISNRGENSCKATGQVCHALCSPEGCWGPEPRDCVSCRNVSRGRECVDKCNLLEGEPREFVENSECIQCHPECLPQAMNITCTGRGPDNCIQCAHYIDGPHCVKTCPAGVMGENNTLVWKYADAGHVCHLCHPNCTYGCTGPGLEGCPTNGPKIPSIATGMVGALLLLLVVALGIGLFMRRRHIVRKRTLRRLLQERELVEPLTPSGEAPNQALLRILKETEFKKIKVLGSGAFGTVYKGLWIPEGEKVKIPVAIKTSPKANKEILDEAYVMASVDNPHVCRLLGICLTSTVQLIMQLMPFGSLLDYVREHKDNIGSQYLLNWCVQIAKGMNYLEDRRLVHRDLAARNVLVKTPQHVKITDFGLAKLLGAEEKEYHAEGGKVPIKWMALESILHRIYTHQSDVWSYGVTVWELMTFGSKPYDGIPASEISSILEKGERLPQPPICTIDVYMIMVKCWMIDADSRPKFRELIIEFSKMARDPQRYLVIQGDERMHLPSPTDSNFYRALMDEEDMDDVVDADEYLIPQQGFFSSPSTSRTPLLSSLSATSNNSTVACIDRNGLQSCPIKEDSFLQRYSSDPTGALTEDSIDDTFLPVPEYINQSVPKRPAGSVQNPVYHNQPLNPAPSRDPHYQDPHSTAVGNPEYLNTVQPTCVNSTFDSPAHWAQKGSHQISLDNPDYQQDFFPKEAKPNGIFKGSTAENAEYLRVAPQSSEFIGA
metric: GI50 (nM)

Cc1cc2cc(n1)-c1cnccc1OCCCCCn1c(nc3cc(F)c(N4CCC5(CCN(CCF)CC5)CC4)cc31)NC2=O [Example 61] | 0.91
Cc1cc2cc(n1)-c1cnccc1OCCC[C@@H](C)Cn1c(nc3cc(C)c(N4CCC5(CC4)CCN(C4COC4)CC5)cc31)NC2=O [Example 12] | 4.9
Cc1cc2cc(n1)-c1cnccc1OCCCCCn1c(nc3cc(C)c(N4CCC5(CCN(CCF)CC5)CC4)cc31)NC2=O [Example 59] | 2.4

(I) Cc1cc2cc(n1)-c1cnc(F)cc1OCCC[C@@H](C)Cn1c(nc3ccc(N4CCC5(CCNCC5)CC4)cc31)NC2=O [Example 9]
(II) Cc1cc2cc(n1)-c1cnccc1OCCC[C@@H](C)Cn1c(nc3ccc(N4CCC5(CC4)CCN(C4COC4)CC5)cc31)NC2=O [Example 4]
(III) Cc1cc2cc(n1)-c1cnccc1OCCC[C@@H](C)Cn1c(nc3ccc(N4CCC5(CC4)CCN(C4COC4C)CC5)cc31)NC2=O (stereo partly drawn) [Example 83]
Hey, quick one: sort these by GI50, largest value first please. Return the labels ranked in the requested order, please.
III, I, II

(a) Cc1cc2cc(n1)-c1cnccc1OCCCCCn1c(nc3ccc(N4CCC5(CC4)CCN(C4COC4)CC5)cc31)NC2=O [Example 52]
(b) Cc1cc2cc(n1)-c1cnccc1OCCC[C@@H](C)Cn1c(nc3ccc(N4CCC5(CCN(C)CC5)CC4)cc31)NC2=O [Example 3]
(c) Cc1cc2cc(n1)-c1cnccc1OCCCCCn1c(nc3ccc(N4CCC5(CCN(CCN(C)C)CC5)CC4)cc31)NC2=O [Example 87]
Sort the compounds on GI50; start with the lowest figure. Put the labels in the requested order and list them out.
b, a, c
(b: 0.49 nM, a: 0.8 nM, c: 5.4 nM)

###

target: Ba/F3 (EGFR Del19/C797S) (Homo sapiens, UniProt P00533, C797S, cells depend on it, form not given); experiment: Cell proliferation inhibitory activity assay, Ba/F3 EGFR Del19/C797S; format: cell-based; conditions: cell proliferation inhibition, 72 hours, luminescence; read-out: Ba/F3 cells overexpressing different EGFR mutations IC50 (nM) Del19/C797S
Sequence (P00533 with tags, fused parts or gaps DEL746-750/C797S, form open): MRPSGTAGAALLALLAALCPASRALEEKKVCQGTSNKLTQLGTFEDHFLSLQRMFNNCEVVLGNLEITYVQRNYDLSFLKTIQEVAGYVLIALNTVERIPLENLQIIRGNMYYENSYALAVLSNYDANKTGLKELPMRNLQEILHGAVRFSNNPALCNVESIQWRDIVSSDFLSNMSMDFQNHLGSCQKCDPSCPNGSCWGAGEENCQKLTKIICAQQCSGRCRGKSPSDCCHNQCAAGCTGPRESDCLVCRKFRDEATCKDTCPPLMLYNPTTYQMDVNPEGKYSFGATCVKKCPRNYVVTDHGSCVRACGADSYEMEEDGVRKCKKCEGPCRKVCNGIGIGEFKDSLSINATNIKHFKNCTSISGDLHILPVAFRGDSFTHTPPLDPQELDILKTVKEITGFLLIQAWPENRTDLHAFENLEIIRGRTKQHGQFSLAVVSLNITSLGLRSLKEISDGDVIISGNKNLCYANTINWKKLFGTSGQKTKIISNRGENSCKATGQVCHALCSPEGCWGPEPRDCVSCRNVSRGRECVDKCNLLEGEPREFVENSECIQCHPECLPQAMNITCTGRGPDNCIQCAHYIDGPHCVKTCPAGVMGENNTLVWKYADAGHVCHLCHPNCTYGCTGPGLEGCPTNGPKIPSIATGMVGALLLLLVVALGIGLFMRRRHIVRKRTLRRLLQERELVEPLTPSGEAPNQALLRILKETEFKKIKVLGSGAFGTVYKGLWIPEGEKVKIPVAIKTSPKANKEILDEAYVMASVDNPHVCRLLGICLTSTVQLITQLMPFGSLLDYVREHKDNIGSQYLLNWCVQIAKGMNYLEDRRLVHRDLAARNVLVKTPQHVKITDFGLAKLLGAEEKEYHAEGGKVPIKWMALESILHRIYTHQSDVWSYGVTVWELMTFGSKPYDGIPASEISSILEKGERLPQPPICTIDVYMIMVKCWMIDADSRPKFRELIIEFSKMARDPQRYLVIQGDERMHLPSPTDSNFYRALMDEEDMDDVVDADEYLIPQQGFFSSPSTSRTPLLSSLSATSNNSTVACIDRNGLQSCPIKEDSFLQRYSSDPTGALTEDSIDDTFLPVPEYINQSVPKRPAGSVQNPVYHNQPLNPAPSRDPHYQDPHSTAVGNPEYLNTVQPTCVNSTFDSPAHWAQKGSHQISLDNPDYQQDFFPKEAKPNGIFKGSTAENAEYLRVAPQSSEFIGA
metric: GI50 (nM)

Solved cases (2 shown):
Cc1cc2cc(n1)-c1cnc(F)cc1OCCC[C@@H](C)Cn1c(nc3ccc(N4CCC5(CCNCC5)CC4)cc31)NC2=O [Example 9] | 0.77
COC(C)(C)CC(C)N1CCC2(CCN(c3ccc4nc5n(c4c3)CCCCCOc3ccncc3-c3cc(cc(C)n3)C(=O)N5)CC2)CC1 (stereo not shown) [Example 90] | 4

(P) Cc1cc2cc(n1)-c1cnccc1OCCC[C@@H](C)Cn1c(nc3ccc(N4CCC5(CC4)CCN(C4COC4C)CC5)cc31)NC2=O (stereo partly shown) [Example 83]
(Q) Cc1cc2cc(n1)-c1cnccc1OCCCCCn1c(nc3ccc(N4CCC5(CCN(CCN(C)C)CC5)CC4)cc31)NC2=O [Example 87]
Would you mind telling me which has the lower recorded GI50 between P and Q ? Record your answer as the label of the chosen record.
P
(P: 0.27 nM, Q: 5.8 nM)

###

biological target: Ba/F3 (EGFR L858R/T790M/C797S) (Homo sapiens, UniProt P00533, T790M/C797S/L858R, cells depend on it); assay: Cell proliferation inhibitory activity assay, Ba/F3 EGFR L858R/T790M/C797S; type: cell-based; conditions: cell proliferation inhibition, 72 hours, luminescence; read-out: Ba/F3 cells overexpressing different EGFR mutations IC50 (nM) L858R/T790M/C797S
Sequence (P00533 whole entry T790M/C797S/L858R): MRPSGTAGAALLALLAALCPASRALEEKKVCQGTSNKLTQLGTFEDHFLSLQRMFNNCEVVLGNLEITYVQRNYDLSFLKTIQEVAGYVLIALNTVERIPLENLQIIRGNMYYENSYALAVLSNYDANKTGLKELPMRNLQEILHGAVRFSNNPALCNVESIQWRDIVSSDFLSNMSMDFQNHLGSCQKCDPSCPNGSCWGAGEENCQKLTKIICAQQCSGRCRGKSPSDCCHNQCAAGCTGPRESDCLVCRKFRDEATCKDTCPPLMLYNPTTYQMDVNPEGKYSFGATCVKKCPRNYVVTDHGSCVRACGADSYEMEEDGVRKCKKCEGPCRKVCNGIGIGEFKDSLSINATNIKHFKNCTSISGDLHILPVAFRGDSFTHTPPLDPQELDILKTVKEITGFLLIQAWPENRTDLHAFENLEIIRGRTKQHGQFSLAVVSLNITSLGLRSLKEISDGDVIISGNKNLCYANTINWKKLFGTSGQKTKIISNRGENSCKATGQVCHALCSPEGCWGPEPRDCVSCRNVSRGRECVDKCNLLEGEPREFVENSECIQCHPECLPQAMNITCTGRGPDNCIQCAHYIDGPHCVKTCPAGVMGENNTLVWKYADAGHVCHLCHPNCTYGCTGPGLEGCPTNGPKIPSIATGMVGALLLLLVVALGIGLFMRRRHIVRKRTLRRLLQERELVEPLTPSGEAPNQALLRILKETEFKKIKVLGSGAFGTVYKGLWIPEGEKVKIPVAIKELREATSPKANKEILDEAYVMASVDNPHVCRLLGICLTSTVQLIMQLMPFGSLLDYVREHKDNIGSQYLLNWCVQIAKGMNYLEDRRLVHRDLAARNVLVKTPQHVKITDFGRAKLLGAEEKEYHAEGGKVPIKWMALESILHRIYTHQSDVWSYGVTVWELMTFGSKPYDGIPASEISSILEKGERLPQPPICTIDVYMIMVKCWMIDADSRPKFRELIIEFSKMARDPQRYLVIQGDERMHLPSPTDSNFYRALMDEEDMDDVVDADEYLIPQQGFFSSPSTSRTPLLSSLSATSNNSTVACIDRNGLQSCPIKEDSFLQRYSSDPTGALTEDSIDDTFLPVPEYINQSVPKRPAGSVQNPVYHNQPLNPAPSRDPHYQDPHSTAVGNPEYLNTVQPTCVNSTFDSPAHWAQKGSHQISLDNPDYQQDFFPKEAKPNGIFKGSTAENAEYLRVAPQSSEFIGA
metric: GI50 (nM)

Known results for compounds:
Cc1cc2cc(n1)-c1cnccc1OCCCC(C)(C)Cn1c(nc3ccc(N4CCC5(CCN(C)CC5)CC4)cc31)NC2=O | 3.7
Cc1cc2cc(n1)-c1cnccc1OCCCCCn1c(nc3ccc(N4CCC5(CCN(CCN(C)C)CC5)CC4)cc31)NC2=O | 11
Cc1cc2cc(n1)-c1cnc(F)cc1OCCC[C@@H](C)Cn1c(nc3ccc(N4CCC5(CC4)CCN(C4COC4)CC5)cc31)NC2=O | 4.3
Cc1cc2cc(n1)-c1cnccc1OCCC[C@@H](C)Cn1c(nc3ccc(N4CCC5(CC4)CCN(C4COC4C)CC5)cc31)NC2=O (stereo partly drawn) | 2
Cc1cc2cc(n1)-c1cnccc1OCCCCCn1c(nc3cc(F)c(N4CCC5(CCN(CCF)CC5)CC4)cc31)NC2=O | 1.8

(A) COCCCN1CCC2(CC1)CCN(c1ccc3nc4n(c3c1)C[C@H](C)CCCOc1ccncc1-c1cc(cc(C)n1)C(=O)N4)CC2
(B) Cc1cc2cc(n1)-c1cnccc1OCCCCCn1c(nc3cc(F)c(N4CCC5(CC4)CCN(C4CC4)CC5)cc31)NC2=O
(C) Cc1cc2cc(n1)-c1cnccc1OCCC[C@@H](C)Cn1c(nc3ccc(N4CCC5(CC4)CCN(C4COC4(C)C)CC5)cc31)NC2=O (stereo partly drawn)
(D) COCCCN1CCC2(CC1)CCN(c1ccc3nc4n(c3c1)C[C@H](C)CCCOc1cc(F)ncc1-c1cc(cc(C)n1)C(=O)N4)CC2
Returns the items ordered by GI50, from maximum to minimum. // rank by listing labels in the order requested
C, D, B, A

###

molecular target: Ba/F3 (EGFR L858R/T790M/C797S) (Homo sapiens, UniProt P00533, T790M/C797S/L858R, cells depend on it); experiment: Cell proliferation inhibitory activity assay, Ba/F3 EGFR L858R/T790M/C797S; type: cell-based; conditions: cell proliferation inhibition, 72 hours, luminescence; read-out: Ba/F3 cells overexpressing different EGFR mutations IC50 (nM) L858R/T790M/C797S
metric: GI50 (nM)

Cc1cc2cc(n1)-c1cnccc1OCCCCCn1c(nc3cc(F)c(N4CCC5(CC4)CCN(C4COC4)CC5)cc31)NC2=O | 1.5

(I) Cc1cc2cc(n1)-c1cnccc1OCCCCCn1c(nc3ccc(N4CCC5(CC4)CCN(C4COC4)CC5)cc31)NC2=O
(II) Cc1cc2cc(n1)-c1cnccc1OCCCCCn1c(nc3ccc(N4CCC5(CC4)CCN(C4CC4)CC5)cc31)NC2=O
Between I and II , which one shows the larger GI50 value? Mark your selection by writing its label.
II
